- Tested on: Vero (African green monkey kidney) cell line
- CONDITION CONTEXT: 48 h
READOUT NAME: pIC50
Answers are plain numbers, as −log10 of the molar value.

Request the reported pIC50 associated with CC1=C(CO)C(=O)OC(C(C)C2(O)CCC3C4CC=C5C(O)C=CC(=O)C5(C)C4CCC32C)C1 (stereo not shown)
4.62

###

- ASSAY REMARKS: in vitro
- CONDITION CONTEXT: African green monkey, Cytotoxic activity IC50, Vero
Label Met when IC50 at 48 h is strictly below 10 µM; at or above that, label Not met.

Solved cases (3 shown):
MOLECULE	CLASS ASSIGNMENT
CC1=C(CO)C(=O)OC(C(C)C2=CCC3C4CC=C5C(O)C=CC(=O)C5(C)C4CCC23C)C1 (stereo not drawn)	Met
CC1=C(CO)C(=O)OC(C(C)C2CCC3C4CC5OC56C(=O)C=CC(=O)C6(C)C4CCC23C)C1 (stereo not drawn) [Compound 22, 4-dehydro-withaferin A]	Not met
CC(=O)OCC1=C(C)CC(C(C)C2CCC3C4CC5OC56C(O)C(O)CC(=O)C6(C)C4CCC23C)OC1=O (stereo not drawn)	Not met

Regarding CC1=C(CO)C(=O)OC(C(C)C2=CCC3C4CC=C5C(=O)C=CC(=O)C5(C)C4CCC23C)C1 (stereo not drawn) , kindly confirm whether its IC50 at 48 h is beneath 10 µM.
Not met

###

- System: HL-60 (human promyelocytic leukemia cell line)
- ASSAY REMARKS: MTT cell viability (antiproliferative) assay, HL-60
- CONDITION CONTEXT: Vero (IC50) on HL-60 (IC50)
READOUT NAME: SI (selectivity index)
Answers are plain numbers.

COMPOUND	SI (selectivity index)
CC1=C(CO)C(=O)OC(C(C)C2CCC3C4CC5OC56C(=O)C=CC(=O)C6(C)C4CCC23C)C1 (stereo not shown) [Compound 22, 4-dehydro-withaferin A]	24.1
CC1=C(CO)C(=O)OC(C(C)C2(O)CCC3C4CC=C5C(O)C=CC(=O)C5(C)C4CCC32C)C1 (stereo not shown) [Compound 13]	1.9

From here, focus on the item given below.
Can you look up the measured SI (selectivity index) of CC1=C(CO)C(=O)OC(C(C)C2CCC3C4CC(Cl)C5(O)C(O)C=CC(=O)C5(C)C4CCC23C)C1 (stereo not drawn) [Compound 27, 6α-chloro-5β-hydroxywithaferin A] for me?
7.1

###

- Test system: HL-60 (human promyelocytic leukemia cell line)
- ASSAY REMARKS: MTT cell viability (antiproliferative) assay, HL-60
- CONDITION CONTEXT: read-out: Cytotoxic activity IC50, HL 60; MTT, 48 h incubation; mean ± SD of three independent experiments
READOUT NAME: IC50 (µM)
Numbers only, in µM.

Here are 3 compounds. What values of IC50 were reported for them?
1. CC1=C(CO)C(=O)OC(C(C)C2(O)CCC3C4CC(O)C56C=CC(OO5)C(=O)C6(C)C4CCC32C)C1 (stereo not drawn) [Compound 2]
2. CC1=C(CO)C(=O)OC(C(C)C2(O)CCC3C4CC(O)C56C=CC(OO5)C(=O)C6(C)C4CCC32C)C1 (stereo not drawn) [Compound 1]
3. CC1=C(CO)C(=O)O[C@@H]([C@@H](C)[C@H]2CC[C@H]3[C@@H]4C[C@H]5O[C@]56[C@@H](O)C=CC(=O)[C@]6(C)[C@H]4CC[C@]23C)C1 [Compound 14, withaferin A]

26.7
12.8
0.2

Sourced from paper PMC7731379
